Hi there, I'd appreciate the recorded Emax for every entry that follows.
Target: κ-opioid receptor (Homo sapiens)
Sequence (P41145 whole entry): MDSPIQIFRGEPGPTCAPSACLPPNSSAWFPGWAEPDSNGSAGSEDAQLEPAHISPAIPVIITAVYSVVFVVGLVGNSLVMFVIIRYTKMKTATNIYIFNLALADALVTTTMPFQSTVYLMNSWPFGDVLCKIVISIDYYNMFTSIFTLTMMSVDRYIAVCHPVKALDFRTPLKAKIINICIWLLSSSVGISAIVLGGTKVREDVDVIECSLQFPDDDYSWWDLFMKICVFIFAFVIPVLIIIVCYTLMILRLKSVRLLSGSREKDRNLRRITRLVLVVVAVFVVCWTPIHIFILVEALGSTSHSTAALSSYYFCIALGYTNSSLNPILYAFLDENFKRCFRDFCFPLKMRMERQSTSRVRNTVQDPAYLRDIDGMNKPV
Assay: κ-opioid receptor GTPγS functional assay, U2OS cells
Assay type: biochemical
Design: expressed in transfected cells; host or cells: U-2 OS
Conditions: U2OS cells
Description: Plates were incubated for 30 min at a temperature of about 25° C. with shaking.
Response body: numeric value in %, unit text excluded.

Enquiry: Find the recorded Emax belonging to C[C@H]1[C@H]2Cc3ccc(O)cc3[C@]1(CCCCN[C@@H](CCCCN)C(=O)O)CCN2CC1CC1 [Compound 25] and report it.
Return: 99

Enquiry: Fill blank: measured Emax of the molecule C[C@H]1[C@H]2Cc3ccc(O)cc3[C@]1(CCNC(=O)c1ccc(C(=O)O)cc1)CCN2CC1CC1 [Compound 32] is ____.
Return: 97.7

Enquiry: Bench note: what Emax did COc1ccc2c(c1)[C@]1(CCN3CCC(N(C4CC4)S(=O)(=O)c4ccc(Cl)cc4)CC3)CCN(C)[C@H](C2)[C@@H]1C [Compound 53] show?
Return: 13.3

Enquiry: Could you share which Emax value was measured for COc1ccc2c(c1)[C@]1(CCNCCCN3CCCC3=O)CCN(C)[C@H](C2)[C@@H]1C [Compound 57] ?
Return: 118

Enquiry: May I ask what Emax has been recorded for C[C@H]1[C@H]2Cc3ccc(O)cc3[C@]1(CCNS(C)(=O)=O)CCN2CC1CC1 [Compound 3] ?
Return: 104

Enquiry: Name the recorded Emax for COc1ccc2c(c1)[C@]1(CCN3CCC[C@@H]3C(=O)O)CCN(C)[C@H](C2)[C@@H]1C [Compound 60] .
Return: 97.7

Enquiry: I'd like to know its Emax. The molecule in question is COc1ccc2c(c1)[C@]1(CCN(C)CCCN(C)C)CCN(C)[C@H](C2)[C@@H]1C [Compound 54]
Return: 125

Enquiry: Reported Emax, molecule COc1ccc2c(c1)[C@]1(CCOCc3ccccc3)CCN(C)[C@H](C2)[C@@H]1C [Compound 48] : ____
Return: 108

Enquiry: Please give the measured Emax for this molecule: C[C@H]1[C@H]2Cc3ccc(O)cc3[C@]1(CCNCCc1ccc(S(N)(=O)=O)cc1)CCN2C [Compound 59]
Return: 112

Enquiry: Could you share which Emax value was measured for COC(=O)[C@H](C)NCC[C@]12CCN(CC3CC3)[C@H](Cc3ccc(OC)cc31)[C@@H]2C [Compound 38] ?
Return: 112

Enquiry: Given the entry C[C@H]1[C@H]2Cc3ccc(O)cc3[C@]1(CC(=O)N1CCC(N(C3CC3)S(=O)(=O)c3ccc(Cl)cc3)CC1)CCN2C [Compound 61] , report its measured Emax.
Return: 42.7

Enquiry: Requested field: Emax. Item: COc1ccc2c(c1)[C@@]1(CCOCc3ccccc3)CCN(CC3CC3)[C@@H](C2)[C@H]1C [Compound 44]
Return: 79.3

Enquiry: Suppose we examine the molecule COC(=O)c1ccc(CC(=O)NCC[C@]23CCN(CC4CC4)[C@H](Cc4ccc(OC)cc42)[C@@H]3C)cc1 [Compound 30] ; what Emax value has been reported?
Return: 104

Enquiry: What Emax value was documented for this molecule, COC(=O)[C@H](Cc1ccccc1)NCCCC[C@]12CCN(CC3CC3)[C@H](Cc3ccc(O)cc31)[C@@H]2C [Compound 27] ?
Return: 106

Enquiry: Look up Emax for this molecule: CCOC(=O)c1ccc(NC(=O)NCC[C@]23CCN(CC4CC4)[C@H](Cc4ccc(OC)cc42)[C@@H]3C)cc1 [Compound 1]
Return: 103
